Biological target: T1, human LAG-3 (full length, on the cell surface) (human, UniProt P18627 23-525)
T1 construct: Full-length human LAG-3 expressed on cells; also called HEK293-hLAG-3; HEK293 cells transfected with LAG-3 gene
T1 sequence: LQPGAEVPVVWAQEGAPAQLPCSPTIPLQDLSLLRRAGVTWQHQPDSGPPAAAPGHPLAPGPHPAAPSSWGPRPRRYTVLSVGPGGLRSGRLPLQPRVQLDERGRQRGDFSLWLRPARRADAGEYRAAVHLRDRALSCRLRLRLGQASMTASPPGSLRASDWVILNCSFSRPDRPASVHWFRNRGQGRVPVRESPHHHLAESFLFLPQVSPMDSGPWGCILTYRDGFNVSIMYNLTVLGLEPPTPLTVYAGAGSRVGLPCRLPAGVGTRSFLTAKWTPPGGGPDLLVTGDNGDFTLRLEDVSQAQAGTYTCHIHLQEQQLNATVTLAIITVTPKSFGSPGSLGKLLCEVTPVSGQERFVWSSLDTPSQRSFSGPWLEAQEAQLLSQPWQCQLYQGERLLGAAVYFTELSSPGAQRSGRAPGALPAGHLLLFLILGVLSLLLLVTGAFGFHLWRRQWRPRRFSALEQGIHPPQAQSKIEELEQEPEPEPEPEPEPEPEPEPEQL
Test: FACS, HEK293-hLAG-3; 0.064 nM
quantityName: Mean fluorescence intensity (MFI)
// units = MFI; emit number, no label

Which value of Mean fluorescence intensity has been reported for 105F1E10 (mouse antibody purified from hybridoma) (antibody, V domains shown, also called mAb009-105F1E10) VH: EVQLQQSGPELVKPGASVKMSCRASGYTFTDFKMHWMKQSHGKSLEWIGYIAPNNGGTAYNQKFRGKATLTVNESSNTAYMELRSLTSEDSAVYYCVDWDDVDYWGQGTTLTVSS VL: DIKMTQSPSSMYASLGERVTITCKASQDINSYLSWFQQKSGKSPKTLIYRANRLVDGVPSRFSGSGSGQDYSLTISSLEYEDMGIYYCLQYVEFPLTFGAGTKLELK in the records?
8.6

Could you tell me which Mean fluorescence intensity is on file for 409B11E12 (mouse antibody purified from hybridoma) (antibody, V domains shown, also called mAb104-409B11E12) VH: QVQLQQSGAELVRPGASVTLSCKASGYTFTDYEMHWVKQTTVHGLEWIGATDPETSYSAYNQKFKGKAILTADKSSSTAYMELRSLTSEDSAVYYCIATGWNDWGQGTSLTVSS VL: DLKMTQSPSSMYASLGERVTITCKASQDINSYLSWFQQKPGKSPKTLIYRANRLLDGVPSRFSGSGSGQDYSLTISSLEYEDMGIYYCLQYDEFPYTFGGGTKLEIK ?
5

Tell me the measured Mean fluorescence intensity of 405B8H3 (mouse antibody purified from hybridoma) (antibody, V domains shown, also called mAb103-405B8H3; 405B81-13) VH: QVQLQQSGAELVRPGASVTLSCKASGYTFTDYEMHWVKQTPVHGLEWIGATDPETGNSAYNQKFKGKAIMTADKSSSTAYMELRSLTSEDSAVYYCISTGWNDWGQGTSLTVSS VL: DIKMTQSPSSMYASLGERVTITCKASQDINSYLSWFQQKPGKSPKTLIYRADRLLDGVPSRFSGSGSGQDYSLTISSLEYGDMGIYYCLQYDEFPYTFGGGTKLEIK , please.
8.7
